The measured values listed here are drawn from the supplement of paper PMC10307832.

- Tested on: NCI-H596
- assay_text: relative viability (nuclei count vs DMSO), 5 days (fraction); higher = more cells survive
- run_conditions: first compound 0.253 µM
Lab note: class by relative viability, see low: < 0.9; moderate: ≥ 0.9 and < 1; high: ≥ 1

Field: example entries. Status: answers known.
>>> classification("O=c1[nH]c2ccccc2n1C1CCN(CCCC(c2ccc(F)cc2)c2ccc(F)cc2)CC1 [Pimozide] + CC(C)C[C@H](NC(=O)[C@H](Cc1ccccc1)NC(=O)c1cnccn1)B(O)O [Bortezomib] (partner 0.002 µM)")
"moderate"
>>> classification("O=c1[nH]c2ccccc2n1C1CCN(CCCC(c2ccc(F)cc2)c2ccc(F)cc2)CC1 [Pimozide] + COc1cccc2cc(-c3nc([C@H]4CC[C@H](C(=O)O)CC4)n4ncnc(N)c34)[nH]c12 [OSI-027] (partner 0.5 µM)")
"low"
>>> classification("Cc1cnc(-c2cnc(NCCNc3ccc(C#N)cn3)nc2-c2ccc(Cl)cc2Cl)[nH]1 + CCNC(=O)c1noc(-c2cc(C(C)C)c(O)cc2O)c1-c1ccc(CN2CCOCC2)cc1 [Luminespib] (partner 0.01 µM)")
"high"
>>> classification("O=c1[nH]c2ccccc2n1C1CCN(CCCC(c2ccc(F)cc2)c2ccc(F)cc2)CC1 [Pimozide] + C[C@]1(O)C[C@@H](c2nc(-c3ccc4ccc(-c5ccccc5)nc4c3)c3c(N)nccn32)C1 [Linsitinib] (partner 1 µM)")
"high"
>>> classification("O=c1[nH]c2ccccc2n1C1CCN(CCCC(c2ccc(F)cc2)c2ccc(F)cc2)CC1 [Pimozide] + C[C@@H](Oc1cc(-c2cnn(C3CCNCC3)c2)cnc1N)c1c(Cl)ccc(F)c1Cl [Crizotinib] (partner 1 µM)")
"high"

GET /class?item= Cc1cnc(-c2cnc(NCCNc3ccc(C#N)cn3)nc2-c2ccc(Cl)cc2Cl)[nH]1 + COc1cccc2cc(-c3nc([C@H]4CC[C@H](C(=O)O)CC4)n4ncnc(N)c34)[nH]c12 [OSI-027] (partner 0.5 µM)
low

// next record O=c1[nH]c2ccccc2n1C1CCN(CCCC(c2ccc(F)cc2)c2ccc(F)cc2)CC1 [Pimozide] + O=C(c1cc(Cc2n[nH]c(=O)c3ccccc23)ccc1F)N1CCN(C(=O)C2CC2)CC1 [Olaparib] (partner 8 µM)
low

// next record O=c1[nH]c2ccccc2n1C1CCN(CCCC(c2ccc(F)cc2)c2ccc(F)cc2)CC1 [Pimozide] + Cc1nc(NC(=O)N2CCC[C@H]2C(N)=O)sc1-c1ccnc(C(C)(C)C(F)(F)F)c1 [Alpelisib] (partner 2 µM)
low

// next record O=c1[nH]c2ccccc2n1C1CCN(CCCC(c2ccc(F)cc2)c2ccc(F)cc2)CC1 [Pimozide] + Nc1ncn([C@H]2C[C@H](O)[C@@H](CO)O2)c(=O)n1 [Decitabine] (partner 2 µM)
moderate

---

- Test system: NCI-H2087
- assay_text: relative viability (nuclei count vs DMSO), 5 days (fraction); higher = more cells survive
- run_conditions: first compound 0.002 µM
endpoint_name: relative viability
# output: bare number, no unit

Look over these answered cases.
>>> recorded_measurement("CC(=O)O[C@@]12CO[C@@H]1C[C@H](O)[C@@]1(C)C(=O)[C@H](O)C3=C(C)[C@@H](OC(=O)[C@H](O)[C@@H](NC(=O)OC(C)(C)C)c4ccccc4)C[C@@](O)([C@@H](OC(=O)c4ccccc4)[C@H]21)C3(C)C [Docetaxel] + C[C@@H](Oc1cc(-c2cnn(C3CCNCC3)c2)cnc1N)c1c(Cl)ccc(F)c1Cl [Crizotinib] (partner 1 µM)")
0.334
>>> recorded_measurement("CC(=O)O[C@@]12CO[C@@H]1C[C@H](O)[C@@]1(C)C(=O)[C@H](O)C3=C(C)[C@@H](OC(=O)[C@H](O)[C@@H](NC(=O)OC(C)(C)C)c4ccccc4)C[C@@](O)([C@@H](OC(=O)c4ccccc4)[C@H]21)C3(C)C [Docetaxel] + CC1(C)CCC(c2ccc(Cl)cc2)=C(CN2CCN(c3ccc(C(=O)NS(=O)(=O)c4ccc(N[C@H](CCN5CCOCC5)CSc5ccccc5)c(S(=O)(=O)C(F)(F)F)c4)cc3)CC2)C1 [Navitoclax] (partner 0.5 µM)")
0.276
>>> recorded_measurement("CC(=O)O[C@@]12CO[C@@H]1C[C@H](O)[C@@]1(C)C(=O)[C@H](O)C3=C(C)[C@@H](OC(=O)[C@H](O)[C@@H](NC(=O)OC(C)(C)C)c4ccccc4)C[C@@](O)([C@@H](OC(=O)c4ccccc4)[C@H]21)C3(C)C [Docetaxel] + CCNC(=O)c1noc(-c2cc(C(C)C)c(O)cc2O)c1-c1ccc(CN2CCOCC2)cc1 [Luminespib] (partner 0.01 µM)")
0.147
>>> recorded_measurement("CC(=O)O[C@@]12CO[C@@H]1C[C@H](O)[C@@]1(C)C(=O)[C@H](O)C3=C(C)[C@@H](OC(=O)[C@H](O)[C@@H](NC(=O)OC(C)(C)C)c4ccccc4)C[C@@](O)([C@@H](OC(=O)c4ccccc4)[C@H]21)C3(C)C [Docetaxel] + O=C(CCCCCCC(=O)Nc1ccccc1)NO [Vorinostat] (partner 1 µM)")
0.139

Kindly consider the entry below.
GET /values?readout=relative viability&item= CC(=O)O[C@@]12CO[C@@H]1C[C@H](O)[C@@]1(C)C(=O)[C@H](O)C3=C(C)[C@@H](OC(=O)[C@H](O)[C@@H](NC(=O)OC(C)(C)C)c4ccccc4)C[C@@](O)([C@@H](OC(=O)c4ccccc4)[C@H]21)C3(C)C [Docetaxel] + O=C(c1cc(Cc2n[nH]c(=O)c3ccccc23)ccc1F)N1CCN(C(=O)C2CC2)CC1 [Olaparib] (partner 8 µM)
0.243
